Target: T1, SYNJ2BP, P57105
T1 sequence (P57105 8-110, limits assumed, looked up): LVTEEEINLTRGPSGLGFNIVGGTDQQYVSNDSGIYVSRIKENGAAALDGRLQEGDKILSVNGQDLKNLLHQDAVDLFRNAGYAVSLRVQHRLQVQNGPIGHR
Test: holdup assay
Parameters: key: below the threshold = too weak to quantify, mostly under pKd 3.1 to 4
Settings: plain residues with an end cap or a label only (N-terminal biotin on a linker: ahx)
Measurement name: pKd
Reply briefly: the number, and no unit.

{"columns": ["Binder", "pKd"],
 "data": [
  ["QPRTWLQSPV [RTKN, Q9BST9]", 5.2]
]}

Query: Tell me pKd reported for TQKFRASTAL [FRMPD1, Q5SYB0]
Response: 4.26
